- System Tested: T1, SHANK1, Q9Y566
- T1 sequence (Q9Y566 658-767, limits assumed, looked up): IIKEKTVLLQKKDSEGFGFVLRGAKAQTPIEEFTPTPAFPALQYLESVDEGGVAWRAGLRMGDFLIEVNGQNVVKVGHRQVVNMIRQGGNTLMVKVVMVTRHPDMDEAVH
- Procedure Text: holdup assay
- Parameters: key: below the threshold = too weak to quantify, mostly under pKd 3.1 to 4
- Assay Setup: plain residues with an end cap or a label only (N-terminal biotin on a linker: ado-ado)
Assay Readout: pKd

[[record]]
binder = "AEASVACSLC [PTGIR, P43119]"
assay_readout = "pKd"
reported = 3.65

[[record]]
binder = "LPAVCYDIDI [PTTG2, Q9NZH5]"
assay_readout = "pKd"
reported = "below the threshold"

[[record]]
binder = "PYSESDDDWC [CACNA1A, O00555]"
assay_readout = "pKd"
reported = "below the threshold"

[[record]]
binder = "EDPRVEVTQF [SLC22A9, Q8IVM8]"
assay_readout = "pKd"
reported = 5.36

[[record]]
binder = "RQKEVRESKC [SCN8A, Q9UQD0]"
assay_readout = "pKd"
reported = "below the threshold"

[[record]]
binder = "EKCGKEFSEF [PRKACA, P17612]"
assay_readout = "pKd"
reported = "below the threshold"

[[record]]
binder = "DFLSTFHIRI [CIB2, O75838]"
assay_readout = "pKd"
reported = "below the threshold"

[[record]]
binder = "SFISKKEWYV [NECTIN1, Q15223]"
assay_readout = "pKd"
reported = "below the threshold"

